Parameter Activity: see the listing below.
# measurement.protocol: Antioxidant activity assessed as galvinoxyl radical scavenging activity at 100 uM after 19 hrs by UV spectrophotometric analysis
# Type: physicochemical
Give your result in % as a bare value.

Past entries and their recorded results:
{"columns": ["compound", "Activity (%)"],
 "data": [
  ["COc1cc(/C=C/C(=O)N(Cc2cccc3[nH]c4ccccc4c23)C2CCCC2)ccc1O", 90.3],
  ["COc1cc(/C=C/C(=O)O)ccc1O [FERULATE]", 79],
  ["COc1cc(/C=C/C(=O)N(Cc2cccc3[nH]c4ccccc4c23)C(C)C)ccc1O", 90.8],
  ["COc1ccc2c(c1)[nH]c1cccc(CN(C(=O)/C=C/c3ccc(O)c(OC)c3)C(C)C)c12", 87.2]
]}

Moving on to the next compound.
Q: // Activity lookup, key: CCN(Cc1cccc2[nH]c3ccccc3c12)C(=O)/C=C/c1ccc(O)c(OC)c1
Ans: 86.3

----------
# measurement.protocol: Antioxidant activity assessed as galvinoxyl radical scavenging activity at 50 uM after 19 hrs by UV spectrophotometric analysis
# Assay type: physicochemical
Parameter Activity: see the listing below.
Give your result in % as a bare value.

Past entries and their recorded results:
{"columns": ["sample.smiles", "quantity", "recorded.value"],
 "data": [
  ["COc1cc(/C=C/C(=O)N(Cc2cccc3[nH]c4ccccc4c23)C2CCCC2)ccc1O", "Activity", 85.7],
  ["CCN(Cc1cccc2[nH]c3cc(OC)ccc3c12)C(=O)/C=C/c1ccc(O)c(OC)c1", "Activity", 78.2],
  ["COc1ccc2c(c1)[nH]c1cccc(CN(C(=O)/C=C/c3ccc(O)c(OC)c3)C3CCCC3)c12", "Activity", 66.8],
  ["COc1ccc2c(c1)[nH]c1cccc(CN(C(=O)/C=C/c3ccc(O)c(OC)c3)C(C)C)c12", "Activity", 51.7]
]}

Moving on to the next compound.
Q: // Activity lookup, key: CCN(Cc1cccc2[nH]c3ccccc3c12)C(=O)/C=C/c1ccc(O)c(OC)c1
Ans: 82.8

----------
# measurement.protocol: Antioxidant activity assessed as DPPH radical scavenging activity at 2 uM after 4 hrs by UV spectrophotometric analysis
# Assay type: physicochemical
quantity: Activity (%)
Give your result in % as a bare value.

Past entries and their recorded results:
{"columns": ["compound", "Activity, %"],
 "data": [
  ["CCN(Cc1cccc2[nH]c3ccccc3c12)C(=O)/C=C/c1ccc(O)c(OC)c1", 40.1],
  ["COc1ccc2c(c1)[nH]c1cccc(CN(C(=O)/C=C/c3ccc(O)c(OC)c3)C(C)C)c12", 55]
]}

Q: // Activity lookup, key: COc1cc(/C=C/C(=O)N(Cc2cccc3[nH]c4ccccc4c23)C2CCCCC2)ccc1O
Ans: 52.4

Q: // Activity lookup, key: COc1cc(/C=C/C(=O)N(Cc2cccc3[nH]c4ccccc4c23)C2CCCC2)ccc1O
Ans: 54.5

Q: // Activity lookup, key: COc1cc(/C=C/C(=O)O)ccc1O [FERULATE]
Ans: 44.4

----------
# measurement.protocol: Antioxidant activity assessed as DPPH radical scavenging activity at 2 uM after 4 hrs by UV spectrophotometric analysis
# Assay type: physicochemical
quantity: Activity (%)
Give your result in % as a bare value.

{"columns": ["sample.smiles", "Activity [%]"],
 "data": [
  ["COc1cc(/C=C/C(=O)N(Cc2cccc3[nH]c4ccccc4c23)C(C)C)ccc1O", 56.2],
  ["CCN(Cc1cccc2[nH]c3cc(OC)ccc3c12)C(=O)/C=C/c1ccc(O)c(OC)c1", 59.2],
  ["CCN(Cc1cccc2[nH]c3cc(Cl)ccc3c12)C(=O)/C=C/c1ccc(O)c(OC)c1", 49.1],
  ["COc1ccc2c(c1)[nH]c1cccc(CN(C(=O)/C=C/c3ccc(O)c(OC)c3)C3CCCCC3)c12", 47.9]
]}

Moving on to the next molecule.
Q: // Activity lookup, key: COc1ccc2c(c1)[nH]c1cccc(CN(C(=O)/C=C/c3ccc(O)c(OC)c3)C3CCCC3)c12
Ans: 54

----------
The molecules below have reported pIC50 for Cholinesterase (Homo sapiens, UniProt P06276).
Conceptually, pIC50 converts a concentration in mol/L into minus its log10.

{"columns": ["sample.smiles", "tested.on", "pIC50"],
 "data": [
  ["COc1cc(/C=C/C(=O)N(Cc2cccc3[nH]c4ccccc4c23)C(C)C)ccc1O", "Cholinesterase (Homo sapiens, UniProt P06276)", 5.05],
  ["CCN(Cc1cccc2[nH]c3cc(Cl)ccc3c12)C(=O)/C=C/c1ccc(O)c(OC)c1", "Cholinesterase (Homo sapiens, UniProt P06276)", 5.55],
  ["CC(C)NCc1cccc2[nH]c3ccccc3c12", "Cholinesterase (Homo sapiens, UniProt P06276)", 5.09]
]}

Q: Under Cholinesterase (Homo sapiens, UniProt P06276): pIC50 value of CCNCc1cccc2[nH]c3cc(Cl)ccc3c12 ?
Ans: 5.10

----------
# measurement.protocol: Antioxidant activity assessed as galvinoxyl radical scavenging activity at 10 uM after 19 hrs by UV spectrophotometric analysis
# Assay type: physicochemical
quantity: Activity (%)
Give your result in % as a bare value.

Q: // Activity lookup, key: COc1ccc2c(c1)[nH]c1cccc(CN(C(=O)/C=C/c3ccc(O)c(OC)c3)C3CCCC3)c12
Ans: 37.4

Q: // Activity lookup, key: COc1ccc2c(c1)[nH]c1cccc(CN(C(=O)/C=C/c3ccc(O)c(OC)c3)C(C)C)c12
Ans: 23.4

Q: // Activity lookup, key: CCN(Cc1cccc2[nH]c3cc(OC)ccc3c12)C(=O)/C=C/c1ccc(O)c(OC)c1
Ans: 40.3

Q: // Activity lookup, key: COc1cc(/C=C/C(=O)O)ccc1O [FERULATE]
Ans: 33.7

Q: // Activity lookup, key: COc1cc(/C=C/C(=O)N(Cc2cccc3[nH]c4ccccc4c23)C2CCCCC2)ccc1O
Ans: 23.1

----------
# measurement.protocol: Antioxidant activity assessed as DPPH radical scavenging activity at 50 uM after 4 hrs by UV spectrophotometric analysis
# Assay type: physicochemical
Binary label based on Activity with cut-off 80%: below gives true, not below gives false.

Below are worked cases with known answers.
{"columns": ["sample.smiles", "class.label"],
 "data": [
  ["CCN(Cc1cccc2[nH]c3cc(OC)ccc3c12)C(=O)/C=C/c1ccc(O)c(OC)c1", "false"],
  ["CCN(Cc1cccc2[nH]c3cc(Cl)ccc3c12)C(=O)/C=C/c1ccc(O)c(OC)c1", "true"],
  ["COc1ccc2c(c1)[nH]c1cccc(CN(C(=O)/C=C/c3ccc(O)c(OC)c3)C3CCCC3)c12", "false"]
]}

Now for another entry.
Q: Here's an entry: CCN(Cc1cccc2[nH]c3ccccc3c12)C(=O)/C=C/c1ccc(O)c(OC)c1 . Is its Activity below 80%?
Ans: false

----------
The compounds below have reported IC50 for Acetylcholinesterase (Homo sapiens).
Give your result in µM as a bare value.

Past entries and their recorded results:
{"columns": ["sample.smiles", "IC50 (µM)"],
 "data": [
  ["COc1cc(/C=C/C(=O)N(Cc2cccc3[nH]c4ccccc4c23)C(C)C)ccc1O", 22],
  ["CCN(Cc1cccc2[nH]c3cc(Cl)ccc3c12)C(=O)/C=C/c1ccc(O)c(OC)c1", 6.9],
  ["CC(C)NCc1cccc2[nH]c3ccccc3c12", 18]
]}

Moving on to the next compound.
Q: Under Acetylcholinesterase (Homo sapiens): IC50 value of CCNCc1cccc2[nH]c3cc(Cl)ccc3c12 ?
Ans: 5.1

----------
# measurement.protocol: Antioxidant activity assessed as galvinoxyl radical scavenging activity at 2 uM after 19 hrs by UV spectrophotometric analysis
# Assay type: physicochemical
Binary label based on Activity with cut-off 20%: below gives yes, not below gives no.

{"columns": ["molecule", "class.label"],
 "data": [
  ["CCN(Cc1cccc2[nH]c3cc(Cl)ccc3c12)C(=O)/C=C/c1ccc(O)c(OC)c1", "no"]
]}

Q: Here's an entry: COc1ccc2c(c1)[nH]c1cccc(CN(C(=O)/C=C/c3ccc(O)c(OC)c3)C3CCCCC3)c12 . Is its Activity below 20%?
Ans: no

Q: Here's an entry: COc1ccc2c(c1)[nH]c1cccc(CN(C(=O)/C=C/c3ccc(O)c(OC)c3)C(C)C)c12 . Is its Activity below 20%?
Ans: yes

----------
# measurement.protocol: Antioxidant activity assessed as galvinoxyl radical scavenging activity at 100 uM after 19 hrs by UV spectrophotometric analysis
# Assay type: physicochemical
quantity: Activity (%)
Give your result in % as a bare value.

Past entries and their recorded results:
{"columns": ["sample.smiles", "endpoint.unit", "recorded.value"],
 "data": [
  ["COc1ccc2c(c1)[nH]c1cccc(CN(C(=O)/C=C/c3ccc(O)c(OC)c3)C3CCCC3)c12", "%", 87.4],
  ["CCN(Cc1cccc2[nH]c3cc(OC)ccc3c12)C(=O)/C=C/c1ccc(O)c(OC)c1", "%", 91.9],
  ["COc1ccc2c(c1)[nH]c1cccc(CN(C(=O)/C=C/c3ccc(O)c(OC)c3)C3CCCCC3)c12", "%", 88.6],
  ["COc1cc(/C=C/C(=O)N(Cc2cccc3[nH]c4ccccc4c23)C2CCCCC2)ccc1O", "%", 87.2]
]}

Moving on to the next compound.
Q: // Activity lookup, key: CCN(Cc1cccc2[nH]c3cc(Cl)ccc3c12)C(=O)/C=C/c1ccc(O)c(OC)c1
Ans: 83.2
